The entries below come with measured pIC50 values attached.
- System: human PBMCs
- Test details: CD3/CD28 stimulated IL-2 release NECA reversal assay in human PBMCs;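 further: dose-response as % inhibition where 100% equals no-NECA control wells with CD3/CD28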
- Assay type: cell-based
- Cond: PBMC, CD3/CD28 antibody stimulated, 1 uM NECA, 24 hours, IL-2 in culture supernatant
Just the number, please; pIC50 means minus log10 of the concentration in mol/L.

# Structure notation, pIC50
rows = [
    ("Cc1cc(-c2c(-c3cccc(C#N)c3)nn3ccc(C(=O)NCCC(C)(C)N)nc23)cc(C)n1", 8.00),
    ("Cc1cc(-c2c(-c3cccc(C#N)c3)nn3ccc(NC45CC(O)(C4)C5)nc23)cc(Cl)n1", 7.92),
    ("Cc1cccnc1CN1CCN(c2ccn3nc(-c4ccco4)c(C#N)c3n2)CC1", 7.14),
]

Provide human PBMCs pIC50 reading for `COc1cc(-c2c(-c3cccc(C#N)c3)nn3ccc(N)nc23)cc(C)n1` .
7.16

Provide human PBMCs pIC50 reading for `CC(=O)N1CCC(Nc2ccn3nc(-c4cccc(C#N)c4)c(-c4cc(C)nc(C)c4)c3n2)CC1` .
7.48
